tested system: AgNbp2
assay info: SPOT peptide array binding signal intensity (averaged, normalized) (arbitrary units (background-subtracted, floor 0; scale differs between SH3 domains)); higher = stronger binding of the SH3 domain to the peptide
Label class 0 if SPOT peptide array binding signal intensity falls below 40; label class 1 in every other case.

query: Quick check: does TTAPALPSLPPPPLL have SPOT peptide array binding signal intensity greater than or equal to 40?
result: class 0

query: Quick check: does SPLGAPPPPPHKDHL have SPOT peptide array binding signal intensity greater than or equal to 40?
result: class 0

query: Quick check: does IRMPSNPALPKKLLN have SPOT peptide array binding signal intensity greater than or equal to 40?
result: class 1

query: Quick check: does GDHPKGPPPPPPPDE have SPOT peptide array binding signal intensity greater than or equal to 40?
result: class 0

query: Quick check: does RSLRKRPTSPSISGS have SPOT peptide array binding signal intensity greater than or equal to 40?
result: class 1

query: Quick check: does VKPRQLFPIPLNKVD have SPOT peptide array binding signal intensity greater than or equal to 40?
result: class 0

query: Quick check: does RMVRRRPLRVQFSAR have SPOT peptide array binding signal intensity greater than or equal to 40?
result: class 1

query: Quick check: does PHNPSPFFPPPDFND have SPOT peptide array binding signal intensity greater than or equal to 40?
result: class 1

query: Quick check: does NIKVLLNPKLGKPVK have SPOT peptide array binding signal intensity greater than or equal to 40?
result: class 0

query: Quick check: does IVNKPLPPLPVAGSS have SPOT peptide array binding signal intensity greater than or equal to 40?
result: class 0

query: Quick check: does MAMRPIPPLPTESEY have SPOT peptide array binding signal intensity greater than or equal to 40?
result: class 1

query: Quick check: does KNRKNLPTIPIRLSG have SPOT peptide array binding signal intensity greater than or equal to 40?
result: class 1

query: Quick check: does NNQRRKPLLLNIGDH have SPOT peptide array binding signal intensity greater than or equal to 40?
result: class 1

query: Quick check: does SSAAPPPPPRRATPE have SPOT peptide array binding signal intensity greater than or equal to 40?
result: class 0

Cited source: the supplement of paper PMC4466140
